TARGET_ENTITY: 5-hydroxytryptamine receptor 2C (Homo sapiens)
Sequence (P28335 whole entry): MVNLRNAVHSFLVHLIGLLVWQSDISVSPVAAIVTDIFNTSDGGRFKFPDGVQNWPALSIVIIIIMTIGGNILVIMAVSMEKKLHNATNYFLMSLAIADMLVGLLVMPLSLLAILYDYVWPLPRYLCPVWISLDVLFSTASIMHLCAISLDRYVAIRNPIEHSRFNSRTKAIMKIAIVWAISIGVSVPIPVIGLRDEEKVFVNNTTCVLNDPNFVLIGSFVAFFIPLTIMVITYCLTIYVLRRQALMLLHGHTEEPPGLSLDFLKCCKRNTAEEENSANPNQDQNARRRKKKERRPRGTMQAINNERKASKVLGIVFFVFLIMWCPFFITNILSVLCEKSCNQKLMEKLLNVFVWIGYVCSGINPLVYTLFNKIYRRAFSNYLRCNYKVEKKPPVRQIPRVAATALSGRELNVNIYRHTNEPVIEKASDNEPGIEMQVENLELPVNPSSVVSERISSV
TEST_NAME: Displacement of [3H]Mesulergine from human recombinant 5HT2C receptor incubated for […] by microbeta scintillation counting method
pKi: −log10 of the molar value.

{"columns": ["MOLECULE", "pKi"],
 "data": [
  ["OC1(c2ccc(Cl)cc2)CC2CCC(C1)N2CCCCc1nc2ccccc2s1 (stereo unspecified)", 5.34]
]}

* * *

TARGET_ENTITY: 5-hydroxytryptamine receptor 2A (Homo sapiens)
Sequence (P28223 whole entry): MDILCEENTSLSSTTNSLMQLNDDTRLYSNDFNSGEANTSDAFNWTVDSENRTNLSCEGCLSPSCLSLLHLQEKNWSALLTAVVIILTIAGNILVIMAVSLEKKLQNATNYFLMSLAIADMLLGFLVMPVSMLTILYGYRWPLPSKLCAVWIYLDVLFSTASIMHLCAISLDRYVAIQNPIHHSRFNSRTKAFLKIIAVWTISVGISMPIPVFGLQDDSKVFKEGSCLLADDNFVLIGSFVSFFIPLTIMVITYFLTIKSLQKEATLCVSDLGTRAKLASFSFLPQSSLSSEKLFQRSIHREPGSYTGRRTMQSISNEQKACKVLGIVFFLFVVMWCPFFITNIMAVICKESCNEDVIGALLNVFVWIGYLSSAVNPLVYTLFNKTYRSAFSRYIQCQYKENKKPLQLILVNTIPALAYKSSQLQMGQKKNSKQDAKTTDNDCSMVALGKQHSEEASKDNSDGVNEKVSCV
TEST_NAME: Displacement of [3H]Ketanserin from human recombinant 5HT2A receptor incubated for […] by microbeta scintillation counting method
READOUT_LABEL: Ki

{"columns": ["COMPOUND", "RESULT"],
 "data": [
  ["OC1(c2ccc(Cl)cc2)CC2CCC(C1)N2CCCCc1nc2ccccc2s1 (stereo unspecified)", "> 10 µM"]
]}
